Each recorded value in this set is attributed to patent US20250011363A1.

In this section, each of the binders is paired with its reported Binding affinity (RU).
Biological target: acetylcholine receptor
Assay: SPR, peptide at 10 uM on acetylcholine receptor
Endpoint name: Binding affinity (RU)

[
  {
    "Binder": "KFDVK [5mer-660]",
    "Recorded number": 11
  },
  {
    "Binder": "RFTVR [5mer-651]",
    "Recorded number": 11
  },
  {
    "Binder": "RETNR [5mer-976]",
    "Recorded number": 16
  },
  {
    "Binder": "KYPDK [5mer-683]",
    "Recorded number": 32
  },
  {
    "Binder": "RDHWK [5mer-692]",
    "Recorded number": 15
  },
  {
    "Binder": "RCEMR [5mer-677]",
    "Recorded number": 15
  },
  {
    "Binder": "KAWVR [5mer-994]",
    "Recorded number": 26
  },
  {
    "Binder": "RISPR [5mer-673]",
    "Recorded number": 14
  },
  {
    "Binder": "KKTVK [5mer-679]",
    "Recorded number": 21
  },
  {
    "Binder": "KNAHK [5mer-984]",
    "Recorded number": 11
  },
  {
    "Binder": "RFNIR [5mer-686]",
    "Recorded number": 18
  },
  {
    "Binder": "KASKK [5mer-697]",
    "Recorded number": 25
  },
  {
    "Binder": "KTEVK [5mer-954]",
    "Recorded number": 23
  },
  {
    "Binder": "KEWEK [5mer-691]",
    "Recorded number": 16
  },
  {
    "Binder": "KPTWK [5mer-956]",
    "Recorded number": 19
  },
  {
    "Binder": "KHAPK [5mer-672]",
    "Recorded number": 12
  },
  {
    "Binder": "KIANR [5mer-961]",
    "Recorded number": 32
  },
  {
    "Binder": "RIWKR [5mer-962]",
    "Recorded number": 23
  },
  {
    "Binder": "KNNAR [5mer-694]",
    "Recorded number": 24
  },
  {
    "Binder": "KNADK [5mer-955]",
    "Recorded number": 14
  },
  {
    "Binder": "RYDHK [5mer-978]",
    "Recorded number": 30
  },
  {
    "Binder": "RPMDK [5mer-986]",
    "Recorded number": 12
  },
  {
    "Binder": "KNDKK [5mer-981]",
    "Recorded number": 33
  },
  {
    "Binder": "KEEPK [5mer-990]",
    "Recorded number": 12
  },
  {
    "Binder": "RPSKK [5mer-693]",
    "Recorded number": 17
  },
  {
    "Binder": "KCAER [5mer-684]",
    "Recorded number": 27
  },
  {
    "Binder": "RKMAR [5mer-953]",
    "Recorded number": 23
  },
  {
    "Binder": "KPNMK [5mer-959]",
    "Recorded number": 29
  },
  {
    "Binder": "KPTWR [5mer-664]",
    "Recorded number": 17
  },
  {
    "Binder": "RCTAR [5mer-989]",
    "Recorded number": 31
  },
  {
    "Binder": "RFAHK [5mer-975]",
    "Recorded number": 18
  },
  {
    "Binder": "RCTAK [5mer-998]",
    "Recorded number": 18
  },
  {
    "Binder": "RPSAK [5mer-966]",
    "Recorded number": 32
  },
  {
    "Binder": "RNDKK [5mer-992]",
    "Recorded number": 15
  }
]
